# System: PCTK3
# Construct: gene CDK18
# setupConditions: concentration: 1 μM, replicates: in singlicate; n = 1;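 further: KINOMEscan kinase panel screen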
For each entry below, report its %Inh value.
Write down the value, and be sure its unit follows.

Would you please look over these solved cases?
| molecule | %Inh |
| --- | --- |
| Fc1cccc(COc2ccc(Nc3ncnc4cc[nH]c34)cc2Cl)c1 | 10% |
| CS(=O)(=O)CCNCc1nc(-c2ccc3ncnc(Nc4ccc(OCc5cccc(F)c5)c(Cl)c4)c3c2)cs1.Cl [GW583340] | 10% |

Turning now to a further molecule:
**Query** May I ask what %Inh has been recorded for O=C(NCCCN1CCCC1=O)c1cnc(NCc2cc(Cl)ccc2Cl)nc1NC1CCNCC1 ?
**Result** 10%

---

Assignment: determine reported %Inh for the given compounds.
# Tested on: RIPK4
# setupConditions: concentration: 1 μM, replicates: in singlicate; n = 1
Answers are plain numbers, in %.

Illustrative cases are given below, each with its answer.
| compound | assayedSystem | measurement |
| --- | --- | --- |
| CCCc1ccc(S(=O)(=O)NC2CCN(c3ccnc(Nc4ccc(OC)cc4)n3)C2)cc1 (centres unmarked) [GSK1379737] | RIPK4 | 0 |
| COc1cc2ncnc(Nc3ccc(OCc4ccccc4Br)c(Cl)c3)c2cc1OC.Cl [GI261590] | RIPK4 | 7 |
| Cn1ccc2ncnc(Oc3ccc(NC(=O)Nc4cccnc4)c(Cl)c3)c21 | RIPK4 | 0 |

Give %Inh for each of the items listed below.
1. Cc1ccc(NC(=O)c2cccc(C#N)c2)cc1-c1ccc(C(=O)Nc2ccncc2)cc1 [GSK1398463]
2. CC(C)(C)c1ccc(-n2cnc3c(N)ncnc32)cc1 [SKF-97263]
3. Fc1ccc(Nc2nccc(-c3c(-c4ccc(Cl)cc4)nn4ncccc34)n2)cc1F [GW829058]
4. O=C(c1ccc(-c2cc(-c3c[nH]nc3-c3ccccn3)ccn2)cc1)N1CCCC1 [GW792479]
5. C[C@H]1CC[C@@H](C(=O)Nc2ccccc2)CN1c1cc(-c2ccc3c(N)n[nH]c3c2)nc(N)n1 [GSK2283293]
6. NC(=O)c1sc(-n2cnc3ccccc32)cc1OCc1ccccc1F [GSK1024306]
7. COc1ccc(NC(=O)c2ccc(-c3cc(-c4nnc(C)o4)ccc3C)cc2)cc1 [GW595885]
8. Fc1ccc(-c2ncn(CCCNCc3ccccc3)c2-c2ccncc2)cc1

**Result**
38
16
29
5
6
0
9
29

Kindly give each listed record's %Inh.
1. CNc1nccc(-c2c(-c3ccc(F)cc3)ncn2CCCN2CCOCC2)n1 [SB-222516]
2. N#Cc1ccc(Oc2ccc(Nc3ncnc4cc[nH]c34)cc2Cl)cc1
3. CCc1nc(-c2cccc(N(C)S(=O)(=O)c3ccccc3)c2)c(-c2ccnc(Nc3ccc(N4CCN(C(C)=O)CC4)nc3)n2)s1 [GSK1645895]

**Result**
1: 33; 2: 0; 3: 18

---

# Tested on: MRCKB
# Construct: gene CDC42BPB
# setupConditions: concentration: 1 μM, replicates: in singlicate; n = 1
parameter: %Inh (%)
Answers are plain numbers, in %.

Recorded results for 5 compounds are shown here.
| compound | resultUnits | %Inh |
| --- | --- | --- |
| OCCOCCn1ccc2ncnc(Nc3ccc(Oc4cccc(Cl)c4)c(Cl)c3)c21 | % | 0 |
| CS(=O)(=O)CCNCc1nc(-c2ccc3ncnc(Nc4ccc(OCc5cccc(F)c5)c(Cl)c4)c3c2)cs1.Cl | % | 0 |
| Nc1n[nH]c2nnc(-c3ccccc3)cc12 | % | 0 |
| FC(F)(F)c1ccc(-c2cc(-c3c[nH]nc3-c3ccccn3)ccn2)cc1 | % | 0 |
| Nc1nc(-c2ccc3c(N)n[nH]c3c2)cc(N2CCC[C@@H](C(=O)Nc3ccccc3)C2)n1.O=C(O)C(F)(F)F.O=C(O)C(F)(F)F | % | 0 |

# per-item lookup of %Inh; items listed below
1. CSc1nn2c(=O)cc(N3CCOCC3)nc2n1Cc1cccc(Cl)c1Cl
2. CS(=O)(=O)CCNCc1ccc(-c2ccc3ncnc(Nc4ccc(OCc5ccccc5)c(Cl)c4)c3c2)o1.Cl
3. COc1ccc(Nc2nccc(N3CCC(NC(=O)c4cccc(NC(C)=O)c4)C3)n2)cc1 (centres unmarked)
4. CCC(CC)(CC)n1cnc2c(N)ncnc21
5. CNc1nccc(-c2c(-c3ccc(F)cc3)ncn2CCCN2CCOCC2)n1
6. COc1ccc(-c2nc3n(c2-c2ccncc2)CCC3)cc1
7. Fc1ccc(-c2ncn(CCCNCc3ccccc3)c2-c2ccncc2)cc1

**Result**
1. 4
2. 2
3. 0
4. 13
5. 0
6. 0
7. 18

Quick request: %Inh for each listed item, please.
1. C[C@@H]1CCN(C(=O)CO)C[C@@H]1N(C)c1ncnc2[nH]ccc12
2. CN1c2ccc(-c3ccc(C(=O)NCCO)cc3)cc2-c2[nH]ncc2S1(=O)=O
3. COc1ccc(NC(=O)Nc2ccc(C)c(-c3ccc(C(=O)Nc4ccncc4)cc3)c2)cc1
4. O=C(Nc1ccccc1F)NC1CCN(c2ccnc(Nc3ccc(F)cc3)n2)C1 (centres unmarked)
5. CC(=O)Nc1n[nH]c2ncc(-c3ccccc3)cc12

**Result**
1: 100; 2: 5; 3: 0; 4: 0; 5: 10

# per-item lookup of %Inh; items listed below
1. COC(=O)c1c(-c2ccccc2)c2cc(Cl)ccc2c(=O)n1Cc1ccc(S(C)(=O)=O)cc1
2. O=c1cc(N2CCOCC2)nc2n(Cc3cccc(Cl)c3)ccn12
3. O=C(NCCCN1CCCC1=O)c1cnc(NCc2cc(Cl)ccc2Cl)nc1NC1CCNCC1
4. CSc1ccc(NC2=C(c3ccccc3Cl)C(=O)NC2=O)cc1
5. FC(F)(F)c1cc(Nc2nccc(-c3c(-c4ccc(Cl)cc4)nn4ncccc34)n2)ccc1Cl

**Result**
1: 0; 2: 16; 3: 0; 4: 0; 5: 9
